test: Solubility experiment in four systems; assay type: physicochemical; details: 0.1% hydrochloric acid
Measured Solubility Value, 0.1% HCl of individual entries
# number only, unit mg/mL dropped from output

I have this molecule here, N[C@@H](CC(=O)N1CCn2c(C(F)(F)F)nc(C(=O)O)c2C1)Cc1cc(F)c(F)cc1F [Example 9] , and I need its recorded Solubility Value, 0.1% HCl.
12.6

Value lookup for Solubility Value, 0.1% HCl; key = N[C@@H](CC(=O)N1CCn2c(C(F)(F)F)nc(C(=O)O)c2C1)Cc1cc(F)c(F)cc1F [Example 10]
15.2

What Solubility Value, 0.1% HCl value was documented for this molecule, N[C@@H](CC(=O)N1CCn2c(C(F)(F)F)nc(C(=O)O)c2C1)Cc1cc(F)c(F)cc1F [Example 8] ?
8.3

Which Solubility Value, 0.1% HCl reading was recorded for the molecule N[C@@H](CC(=O)N1CCn2c(C(F)(F)F)nc(C(=O)O)c2C1)Cc1cc(F)c(F)cc1F [Example 3] ?
20.5

----------
test: Pharmacokinetics assay in rats (LC/MS/MS plasma concentration); assay type: in vivo, SD rats; settings: both sexes, SD, rat, plasma, po, 3 mg/kg, intragastric 3.0 mg/kg, read-out: MRT
Quick reference for MRT among some compounds
Numeric answer only, unit h assumed.

Solved entries (count: 4):
[[record]]
compound = "N[C@@H](CC(=O)N1CCn2c(C(F)(F)F)nc(C(=O)O)c2C1)Cc1cc(F)c(F)cc1F [Example 9]"
endpoint_name = "MRT"
result_value = 4.34

[[record]]
compound = "N[C@@H](CC(=O)N1CCn2c(C(F)(F)F)nc(C(=O)O)c2C1)Cc1cc(F)c(F)cc1F.O=C(O)C(O)C(O)C(=O)O [Example 12]"
endpoint_name = "MRT"
result_value = 4.23

[[record]]
compound = "Cl.N[C@@H](CC(=O)N1CCn2c(C(F)(F)F)nc(C(=O)O)c2C1)Cc1cc(F)c(F)cc1F [Example 1]"
endpoint_name = "MRT"
result_value = 3.17

[[record]]
compound = "N[C@@H](CC(=O)N1CCn2c(C(F)(F)F)nc(C(=O)[O-])c2C1)Cc1cc(F)c(F)cc1F.[Na+] [Example 4]"
endpoint_name = "MRT"
result_value = 4.3


Can you share its MRT? I mean this compound: N[C@@H](CC(=O)N1CCn2c(C(F)(F)F)nc(C(=O)O)c2C1)Cc1cc(F)c(F)cc1F.O=C(O)C[C@H](O)C(=O)O [Example 11]
4.5

----------
assay: Solubility experiment in four systems; format: physicochemical; conditions: PBS pH 7.4
ENDPOINT NAME: Solubility Value, PBS (pH 7.4) (mg/mL)
Provide the reading as a plain figure in mg/mL.

The examples below pair each entry with its known result.
[[record]]
compound = "N[C@@H](CC(=O)N1CCn2c(C(F)(F)F)nc(C(=O)O)c2C1)Cc1cc(F)c(F)cc1F [Example 8]"
result_value = 0.2

[[record]]
compound = "N[C@@H](CC(=O)N1CCn2c(C(F)(F)F)nc(C(=O)O)c2C1)Cc1cc(F)c(F)cc1F [Example 9]"
result_value = 0.3

[[record]]
compound = "N[C@@H](CC(=O)N1CCn2c(C(F)(F)F)nc(C(=O)O)c2C1)Cc1cc(F)c(F)cc1F [Example 3]"
result_value = 7.0


Let us move to another entry and its Solubility Value, PBS (pH 7.4).
Given the compound N[C@@H](CC(=O)N1CCn2c(C(F)(F)F)nc(C(=O)O)c2C1)Cc1cc(F)c(F)cc1F [Example 10] , what is its reported Solubility Value, PBS (pH 7.4)?
1.2

----------
experiment: Solubility experiment in four systems; type: physicochemical; conditions: methanol, organic solvent or mixture, methanol; read-out: Solubility Value, methanol
ENDPOINT NAME: log10(solubility) (log10 of the value in mg/mL)
Heads up, the numbers here are log10 of solubility in mg/mL units.

Example compounds with recorded log10(solubility):
[[record]]
compound = "N[C@@H](CC(=O)N1CCn2c(C(F)(F)F)nc(C(=O)[O-])c2C1)Cc1cc(F)c(F)cc1F.[Na+] [Example 4]"
endpoint_name = "log10(solubility)"
result_value = 1.67

[[record]]
compound = "N[C@@H](CC(=O)N1CCn2c(C(F)(F)F)nc(C(=O)[O-])c2C1)Cc1cc(F)c(F)cc1F.[Li+] [Example 5]"
endpoint_name = "log10(solubility)"
result_value = 1.70

[[record]]
compound = "Cl.N[C@@H](CC(=O)N1CCn2c(C(F)(F)F)nc(C(=O)O)c2C1)Cc1cc(F)c(F)cc1F [Example 1]"
endpoint_name = "log10(solubility)"
result_value = 1.50


Item under review: N[C@@H](CC(=O)N1CCn2c(C(F)(F)F)nc(C(=O)O)c2C1)Cc1cc(F)c(F)cc1F.O=C(O)C(O)C(O)C(=O)O [Example 12] . Reported log10(solubility)?
-0.30

Param item = N[C@@H](CC(=O)N1CCn2c(C(F)(F)F)nc(C(=O)O)c2C1)Cc1cc(F)c(F)cc1F.O=C(O)C[C@H](O)C(=O)O [Example 11] ; retrieve measured log10(solubility).
0.73

----------
assay: Pharmacokinetics assay in rats (LC/MS/MS plasma concentration); format: in vivo, SD rats; conditions: both sexes, SD, rat, plasma, po, 3 mg/kg, intragastric 3.0 mg/kg
ENDPOINT NAME: half-life (h)
Write the number in h without appending the unit.

Answered cases to consult:
[[record]]
structure = "N[C@@H](CC(=O)N1CCn2c(C(F)(F)F)nc(C(=O)O)c2C1)Cc1cc(F)c(F)cc1F.O=C(O)C(O)C(O)C(=O)O"
result_value = 2.54

[[record]]
structure = "N[C@@H](CC(=O)N1CCn2c(C(F)(F)F)nc(C(=O)O)c2C1)Cc1cc(F)c(F)cc1F.O=C(O)C[C@H](O)C(=O)O"
result_value = 2.21

[[record]]
structure = "Cl.N[C@@H](CC(=O)N1CCn2c(C(F)(F)F)nc(C(=O)O)c2C1)Cc1cc(F)c(F)cc1F"
result_value = 1.74

[[record]]
structure = "N[C@@H](CC(=O)N1CCn2c(C(F)(F)F)nc(C(=O)[O-])c2C1)Cc1cc(F)c(F)cc1F.[Na+]"
result_value = 2.65


Field request: half-life | item: N[C@@H](CC(=O)N1CCn2c(C(F)(F)F)nc(C(=O)O)c2C1)Cc1cc(F)c(F)cc1F
3.18

----------
assay: Solubility experiment in four systems; assay type: physicochemical; conditions: methanol
Documented Solubility Value, methanol across a set of molecules
Output spec: scalar in mg/mL, unitless text.

Given the molecule N[C@@H](CC(=O)N1CCn2c(C(F)(F)F)nc(C(=O)O)c2C1)Cc1cc(F)c(F)cc1F [Example 9] , what is its reported Solubility Value, methanol?
35.2

----------
test system: normal ICR mice; assay: Hypoglycemic effect, oral glucose tolerance in normal ICR mice; format: in vivo; conditions: 10 mg/kg by gavage, glucose 4 g/kg 15 minutes after administration
ENDPOINT NAME: Hypoglycemic rate of blood sugar of 30 minutes after administration (%)
I only need the number, in %, no unit after it.

Consider the reported Hypoglycemic rate of blood sugar of 30 minutes after administration for these compounds:
[[record]]
compound = "N[C@@H](CC(=O)N1CCn2c(C(F)(F)F)nc(C(=O)[O-])c2C1)Cc1cc(F)c(F)cc1F.[Na+] [Example 4]"
quantity_unit = "%"
result_value = 9.49

[[record]]
compound = "N[C@@H](CC(=O)N1CCn2c(C(F)(F)F)nc(C(=O)O)c2C1)Cc1cc(F)c(F)cc1F.O=C(O)C[C@H](O)C(=O)O [Example 11]"
quantity_unit = "%"
result_value = 20.18

[[record]]
compound = "N[C@@H](CC(=O)N1CCn2c(C(F)(F)F)nc(C(=O)O)c2C1)Cc1cc(F)c(F)cc1F.O=C(O)C(O)C(O)C(=O)O [Example 12]"
quantity_unit = "%"
result_value = 24.11


Form field: reported Hypoglycemic rate of blood sugar of 30 minutes after administration of Cl.N[C@@H](CC(=O)N1CCn2c(C(F)(F)F)nc(C(=O)O)c2C1)Cc1cc(F)c(F)cc1F [Example 1]
16.06

----------
These records show IC50 for DPP-IX (Homo sapiens, UniProt Q86TI2).
Answer format reminder: number followed by unit.

# example entries with known answers
[[record]]
compound = "Cl.N[C@@H](CC(=O)N1CCn2c(C(F)(F)F)nc(C(=O)O)c2C1)Cc1cc(F)c(F)cc1F [Example 1, hydrochloride]"
system_tested = "DPP-IX (Homo sapiens, UniProt Q86TI2)"
result_value = "63.6 µM"

[[record]]
compound = "N[C@@H](CC(=O)N1CCn2c(C(F)(F)F)nc(C(=O)O)c2C1)Cc1cc(F)c(F)cc1F [Example 2, phosphate]"
system_tested = "DPP-IX (Homo sapiens, UniProt Q86TI2)"
result_value = "185 µM"

[[record]]
compound = "N[C@@H](CC(=O)N1CCn2c(C(F)(F)F)nc(C(=O)O)c2C1)Cc1cc(F)c(F)cc1F [Example 10]"
system_tested = "DPP-IX (Homo sapiens, UniProt Q86TI2)"
result_value = "166 µM"

[[record]]
compound = "N[C@@H](CC(=O)N1CCn2c(C(F)(F)F)nc(C(=O)O)c2C1)Cc1cc(F)c(F)cc1F.O=C(O)C(O)C(O)C(=O)O"
system_tested = "DPP-IX (Homo sapiens, UniProt Q86TI2)"
result_value = "135 µM"


Moving on to another compound below.
Request body: readout IC50, system DPP-IX (Homo sapiens, UniProt Q86TI2), query N[C@@H](CC(=O)N1CCn2c(C(F)(F)F)nc(C(=O)O)c2C1)Cc1cc(F)c(F)cc1F [Example 8] . Return the value.
136 µM

Where do these numbers come from? They come from patent US8518946B2.
